- measuredOn: T1, recombinant human IL-7Rα-His6-Fc (human, UniProt P16871 21-239)
- T1 construct: also called hIL-7R; not shown: His6 tag; Fc (captured by anti-human IgG Fc)
- T1 chain: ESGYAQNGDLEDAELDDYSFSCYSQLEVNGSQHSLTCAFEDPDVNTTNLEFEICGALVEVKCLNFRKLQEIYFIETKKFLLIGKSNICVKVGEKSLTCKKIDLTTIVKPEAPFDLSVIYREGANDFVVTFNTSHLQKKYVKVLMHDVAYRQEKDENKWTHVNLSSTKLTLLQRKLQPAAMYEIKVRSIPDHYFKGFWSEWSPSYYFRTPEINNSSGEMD
- methodSummary: IL-7/IL-7R neutralisation ELISA; inhibition of IL-7 binding to IL-7R
outcomeMeasure: EC50 (nM)

a = ID-A11U (VHH, V7R-2E9 with F47W; produced from E. coli) VHH: EVQLVESGGGLVQAGGSLRLSCESSISTFSSDAMGWFRQAPGKEREWLAAIGWSGAVTHYSDSVQGRFTISRDNAKNTVYLQMNSLKSEDTGRYYCAEDYDTDVWQYWGQGTQVTVSS
b = ID-A2U (VHH, V7R-2E9 with E23A; produced from E. coli) VHH: EVQLVESGGGLVQAGGSLRLSCASSISTFSSDAMGWFRQAPGKEREFLAAIGWSGAVTHYSDSVQGRFTISRDNAKNTVYLQMNSLKSEDTGRYYCAEDYDTDVWQYWGQGTQVTVSS
QUERY: Compare a and b by numeric EC50 and name the larger one. Identify your pick by its label.
RESULT: b
(b: 0.475 nM, a: 0.175 nM)
